Measured values drawn from patent US20210292393A1 for this set.

target: SARS-CoV-2 full length spike protein (wild type) (SARS-CoV-2, UniProt P0DTC2 14-1273)
Class boundaries, taken from values of median fluorescence intensity, fold over isotype control, are as follows: class 1 = under 10 fold over isotype, class 2 = from 10 fold over isotype up to 20 fold over isotype, class 3 = 20 fold over isotype and over

binder	discrete.label
antibody 276 (antibody, V domains shown) VH: QVQLQESGPGLVKPSQTLSLTCTVSGDSISSGGYYWSWIRQHPGKGLEWIGYIYYSGSAYYNPSLKSRVTISLDTSKNQFSLKLSSVTAADTAVYYCARDSVAGFSIFDYWGQGTLVTVSS VL: SSELTQDPAVSVALGQTVRITCQGDSLRSYYASWYQQKPGQAPVRVIYGKNNRPSGIPDRFSGSSSGNTASLTITGAQAEDEADYYCNSWDSSGNHVVFGGGTKLTVL	class 1
antibody 294 (antibody, V domains shown) VH: EVQLVESGGGLVQPGGSLRLSCAASGFTVSSNYMNWVRQAPGKGLEWVSVIYSGGSTYYADSVKGRFTISRDNSKNTLYLQMNSLRAEDTAVYYCARDLGPSGMDVWGQGTTVTVSS VL: DIQMTQSPSSVSASVGDRVTITCRASQGISSWLAWYQQKPGKAPKLLIYAASSLQSGVPSRFSGSGSGTDFTLTISSLQPEDFATYYCQQANSFPLFGGGTKVEIK	class 3
antibody 295 (antibody, V domains shown) VH: QVQLQESGPGLVKPSQTLSLTCTVSGGSISSSDYYWSWIRQPPGKGLEWIGYIYYSGSTYYNPSLKSRVTISVDTSKNQFSLKLSSVTAADTAVYYCARVVGYCSSTSCYVDYWGQGTLVTVSS VL: EIVLTQSPATLSLSPGERVTLSCRASQSVSSYLAWYQQKPGQAPRLLIYDASNRATGIPARFSGSGSGTDFTLTISSLEPEDFAVYYCQQRSNWPPGLTFGGGTKVEIK	class 1
antibody 296 (antibody, V domains shown) VH: EVQLVESGGGLVQPGGSLRLSCAGSGFTLSNYWMTWVRQAPGKGLEWVANINQDASRKYYGDSVKGRFSVSRDNAKNSLYLQMNSLTAEDTGFYYCVREELPSTPGSTWGQGTLVTVSS VL: QSALTQPASVSGSPGQSITISCTGTSSDIGGYNHVSWYQQHPGKAPKLMIYGVSNRPSGVSDRFSGSKSDNTASLTISGLQAEDEADYYCSSPTSRGNKVFGTGTKVTVL	class 1
antibody 301 (antibody, V domains shown) VH: QVQLVQSGAEVKKPGASVKVSCKVSGYTLTELSMHWVRQAPGKGLEWMGGFDPEDGETIYAQKFQGRVTMTEDTSTDTAYMELSSLRSEDTAVYYCATAFCGGDCYPPDALDIWGQGTMVTVSS VL: DIQMTQSPSSVSASVGDRVTITCRASQGISSWLAWYQQKPGKAPKLLIYAASSLQSGVPSRFSGSGSGTDFTLTISSLQPEDFATYYCQQANSFPLTFGGGTKVEIK	class 3
antibody 266 (antibody, V domains shown) VH: QVQLVESGGGVVQPGRSLRLSCAASGFNLSNYAMHWVRQPSGKGLEWVSLISYDGSIKYYTDSVKGRFTVSGDNSKNTLFLQMNSLRPDDSALYYCVRGGVSGPNSFDMWGQGTTVTVSS VL: DVVMTQSPLSLPVTLGQPASISCRSSQSLVYSDGNTYVNWFQQRPGQSPRRLIYQVSIRASGVPDRFSGSGSGTDFALKISRVEAEDVGVYYCMQGTHWPVTFGQGTKVEIK	class 2
antibody 263 (antibody, V domains shown) VH: EVQLVQSGAEVKKPGATVKISCKVSGYTFTDYYMHWVQQAPGKGLEWMGLVDPEDGETIYAEKFQGRVTITADTSTDTAYMELSSLRSDDTAVYYCTTDLAFTIFGGRRGFDPWGQGTLVTVSS VL: DIQLTQSPSFLSASVGDRVTITCRASQGISSYLAWYQQKPGKAPKLLIYAASTLQSGVPSRFSGSGSGTEFTLTISSLQPEDFATYYCQQLNSYDFGQGTRLEIK	class 3
antibody 316 (antibody, V domains shown) VH: QVHLVESGGGVVQPGRSLRLSCAASGFTLTAYAMHWVRQAPGKRLEWVALISYDGSVKKYADSVKGRITVSGDTSTNTLHLQMNSLRADDTAVYYCVRGGVSGPNSFDLWGQGTMVTVSS VL: DVVMTQSPLSLPVTLGQPASMSCRSSQSLEYSDGNTYVNWFHQRPGQSPRRLIYKVSYRDSGVPDRFSGSGSGTDFTLQISRVEAEDVGIYYCMQGTHWPVTFGQGTKVEIK	class 2
antibody 273 (antibody, V domains shown) VH: QVQLVQSGAEVKKPGASVKVSCKVSGYTLTELSMHWVRQAPGKGLEWMGGFDPEDGETIYAQKFQGRVTMTEDTSTDTAYMELSSLRSEDTAVYYCATAPGYYDSSAPQPINWFDPWGQGTLVTVSS VL: QSALTQPASVSGSPGQSITISCTGTSSDVGSYNLVSWYQQHPGKAPKLMIYEVSKRPSGVSNRFSGSKSGNTASLTISGLQAEDEADYYCCSYAGSSTLVFGGGTKLTVL	class 2
antibody 265 (antibody, V domains shown) VH: EVQLVQSGAEVKKPGATVKVSCKFSGDTFSHYYIHWVQQAPGKGLEWMGLVDPQDGESEYAQKFQGKVTITADTSIDTSYLEVTSLRFDDTAFYFCATRGMSGAFDRWGQGTLVTVSS VL: DIVMTQSPDSLAVSLGERATINCKSSQSILSTSNNKNYLAWYQQKPGQPPKLLIYWASTRESGVPDRFSGGGSGTDFTLTISSLQAEDVAVYYCQQYYRTAYTTPIYTFGQGTKLEIK	class 3
